# Study System: full-length human Cal1 (Homo sapiens (Human))
# Sequence (P07384 whole entry): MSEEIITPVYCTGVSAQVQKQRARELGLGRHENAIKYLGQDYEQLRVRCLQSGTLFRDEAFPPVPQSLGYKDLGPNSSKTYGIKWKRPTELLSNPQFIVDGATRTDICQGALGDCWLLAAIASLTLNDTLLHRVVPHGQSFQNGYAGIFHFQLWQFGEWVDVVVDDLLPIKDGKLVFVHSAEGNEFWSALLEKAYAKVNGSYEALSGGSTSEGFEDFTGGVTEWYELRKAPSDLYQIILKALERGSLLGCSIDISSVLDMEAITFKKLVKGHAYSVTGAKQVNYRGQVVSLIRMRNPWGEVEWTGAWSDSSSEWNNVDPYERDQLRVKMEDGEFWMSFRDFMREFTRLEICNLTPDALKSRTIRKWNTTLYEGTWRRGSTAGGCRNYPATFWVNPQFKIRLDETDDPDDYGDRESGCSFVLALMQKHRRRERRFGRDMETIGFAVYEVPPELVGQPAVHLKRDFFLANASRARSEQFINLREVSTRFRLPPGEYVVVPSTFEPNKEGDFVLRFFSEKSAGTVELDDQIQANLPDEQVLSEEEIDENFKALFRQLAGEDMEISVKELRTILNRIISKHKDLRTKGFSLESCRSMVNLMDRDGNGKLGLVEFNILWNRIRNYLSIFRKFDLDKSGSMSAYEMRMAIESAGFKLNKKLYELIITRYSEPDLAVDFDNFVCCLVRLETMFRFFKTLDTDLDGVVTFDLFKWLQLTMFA
# Sequence (P04632 whole entry partner): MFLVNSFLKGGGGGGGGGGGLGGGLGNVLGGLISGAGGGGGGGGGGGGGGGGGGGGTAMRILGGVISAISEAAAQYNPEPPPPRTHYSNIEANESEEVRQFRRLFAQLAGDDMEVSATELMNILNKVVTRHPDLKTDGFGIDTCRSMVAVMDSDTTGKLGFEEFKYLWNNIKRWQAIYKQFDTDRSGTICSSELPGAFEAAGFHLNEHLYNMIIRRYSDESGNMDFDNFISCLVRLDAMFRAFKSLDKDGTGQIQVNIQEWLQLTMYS
# Assay Summary: Calpain inhibition FRET assay
# Assay type: biochemical
Metric Name: Cal1 inhibition (in words)

> print(dat)
                                smiles.text                              study.system  reported.result
1  O=C(NCc1cn(-c2ccc([N+](=O)[O-])cc2)nn1)[C@H](Cc1cscn1)NC(=O)[C@H]1O[C@@H]1C(=O)O  full-length human Cal1 (Homo sapiens (Human))  potent activity
2  O=C(NCc1cn(-c2ccc(Br)cc2)nn1)[C@H](Cc1cscn1)NC(=O)[C@H]1O[C@@H]1C(=O)O  full-length human Cal1 (Homo sapiens (Human))  potent activity

----------
# Study System: full-length human Cal1 (Homo sapiens (Human))
# Assay Summary: Calpain inhibition FRET assay
# Type: biochemical
# Measurement Conditions: Table 2; approximate IC50; read-out: Cal I IC50
pIC50: −log10 of the molar value.
What pIC50 was measured for each of the following?

Prompt line: # pIC50 lookup, item CCOC(=O)[C@H]1O[C@@H]1C(=O)N[C@@H](CC(C)C)C(=O)Nc1ccccc1 [Compound 84]
Response line: 5.60

Prompt line: # pIC50 lookup, item CC(C)C[C@H](NC(=O)[C@@H]1O[C@H]1C(=O)O)C(=O)Nc1c(F)cccc1F [Compound 23b]
Response line: < 6.00

Prompt line: # pIC50 lookup, item Cc1cc(C)c(-n2cc(CNC(=O)[C@H](Cc3cscn3)NC(=O)[C@H]3O[C@@H]3C(=O)O)nn2)c(C)c1 [Compound 58]
Response line: < 6.00

Prompt line: # pIC50 lookup, item CCOC(=O)[C@H]1O[C@@H]1C(=O)N[C@@H](Cc1cnc[nH]1)C(=O)Nc1nc(-c2ccc(F)cc2)cs1 [Compound 78]
Response line: < 6.00

Prompt line: # pIC50 lookup, item CC(=O)NCCCCNC(=O)[C@H](CC(C)C)NC(=O)C1OC1c1ccccc1 (stereo partly drawn) [Compound 61]
Response line: ~6.00

Prompt line: # pIC50 lookup, item CCOC(=O)[C@@H]1O[C@H]1C(=O)N[C@@H](Cc1cnc[nH]1)C(=O)Nc1nc(-c2ccc(F)cc2)cs1 [Compound 77]
Response line: < 6.00

Prompt line: # pIC50 lookup, item CCOC(=O)[C@@H]1O[C@H]1C(=O)N[C@@H](CC(C)C)C(=O)Nc1c(F)cccc1F [Compound 80]
Response line: < 6.00

Prompt line: # pIC50 lookup, item O=C(O)[C@H]1O[C@@H]1C(=O)NC1(C(=O)NCCCCNS(=O)(=O)c2ccc(F)cc2)CCCCC1 [Compound 66]
Response line: 6.00

Prompt line: # pIC50 lookup, item O=C(NCc1cn(-c2cc(C(F)(F)F)cc(C(F)(F)F)c2)nn1)[C@H](Cc1cscn1)NC(=O)[C@H]1O[C@@H]1C(=O)O [Compound 54]
Response line: < 6.00

Prompt line: # pIC50 lookup, item CC(C)NC(=O)[C@@H]1O[C@H]1C(=O)O [Compound 74]
Response line: < 6.00

Prompt line: # pIC50 lookup, item CC(C)C[C@H](NC(=O)[C@H]1O[C@@H]1C(=O)O)C(=O)Nc1ccccc1 [Compound 22]
Response line: 7.00

Prompt line: # pIC50 lookup, item O=C(NCc1cn(-c2ccc(Br)cc2)nn1)[C@H](Cc1cscn1)NC(=O)[C@H]1O[C@@H]1C(=O)O [Compound 55]
Response line: 7.40

Prompt line: # pIC50 lookup, item O=C(O)[C@H]1O[C@@H]1C(=O)NCc1ccc(CO)cc1 [Compound 83]
Response line: < 6.00

Prompt line: # pIC50 lookup, item CC(C)C[C@H](NC(=O)[C@H]1O[C@@H]1C(=O)O)C(=O)N(C)c1nc(-c2ccc(F)cc2)cs1 [Compound 72]
Response line: 6.70

Prompt line: # pIC50 lookup, item CC(C)C[C@H](NC(=O)[C@H]1O[C@@H]1C(=O)O)C(=O)Nc1c(F)cccc1F [Compound 23a]
Response line: 7.30

Prompt line: # pIC50 lookup, item CCOC(=O)[C@@H]1O[C@H]1C(N)=O [Compound 76]
Response line: < 6.00

Prompt line: # pIC50 lookup, item CCOC(=O)[C@H]1O[C@@H]1C(=O)NCc1ccc(CO)cc1 [Compound 82]
Response line: < 6.00

Prompt line: # pIC50 lookup, item CC(C)C[C@H](NC(=O)[C@H]1O[C@@H]1C(=O)O)C(=O)NCCCCNC(=O)CCCCC1CCSS1 (stereo partly drawn) [Compound 67]
Response line: 6.82
